Test system: U251 human glioblastoma cell line
ASSAY TEXT: in vitro FM-HCR assay of MGMT activity (mPlum O^6MeG reporter plasmid)
Assay type: cell-based
RUN PARAMETERS: DMSO condition; relative to wild-type MGMT in same condition
VALUE TYPE: MGMT activity (% of WT) DMSO

Some molecules with recorded MGMT activity (% of WT) DMSO:
{"MOLECULE": "M134V: MGMT polypeptide with mutation M134V (protein) MDKDCEMKRTTLDSPLGKLELSGCEQGLHEIKLLGKGTSAADAVEVPAPAAVLGGPEPLMQCTAWLNAYFHQPEAIEEFPVPALHHPVFQQESFTRQVLWKLLKVVKFGEVISYQQLAALAGNPKAARAVGGAVRGNPVPILIPCHRVVCSSGAVGNYSGGLAVKEWLLAHEGHRLGKPGLGGSSGLAGAWLKGAGATSGSPPAGRN", "VALUE TYPE": "MGMT activity (% of WT) DMSO", "RESULT": "104.2 % of WT"}
{"MOLECULE": "R135T: MGMT polypeptide with mutation R135T (protein) MDKDCEMKRTTLDSPLGKLELSGCEQGLHEIKLLGKGTSAADAVEVPAPAAVLGGPEPLMQCTAWLNAYFHQPEAIEEFPVPALHHPVFQQESFTRQVLWKLLKVVKFGEVISYQQLAALAGNPKAARAVGGAMTGNPVPILIPCHRVVCSSGAVGNYSGGLAVKEWLLAHEGHRLGKPGLGGSSGLAGAWLKGAGATSGSPPAGRN", "VALUE TYPE": "MGMT activity (% of WT) DMSO", "RESULT": "67.7 % of WT"}
{"MOLECULE": "R135L: MGMT polypeptide with mutation R135L (protein) MDKDCEMKRTTLDSPLGKLELSGCEQGLHEIKLLGKGTSAADAVEVPAPAAVLGGPEPLMQCTAWLNAYFHQPEAIEEFPVPALHHPVFQQESFTRQVLWKLLKVVKFGEVISYQQLAALAGNPKAARAVGGAMLGNPVPILIPCHRVVCSSGAVGNYSGGLAVKEWLLAHEGHRLGKPGLGGSSGLAGAWLKGAGATSGSPPAGRN", "VALUE TYPE": "MGMT activity (% of WT) DMSO", "RESULT": "43.3 % of WT"}
{"MOLECULE": "R135G: MGMT polypeptide with mutation R135G (protein) MDKDCEMKRTTLDSPLGKLELSGCEQGLHEIKLLGKGTSAADAVEVPAPAAVLGGPEPLMQCTAWLNAYFHQPEAIEEFPVPALHHPVFQQESFTRQVLWKLLKVVKFGEVISYQQLAALAGNPKAARAVGGAMGGNPVPILIPCHRVVCSSGAVGNYSGGLAVKEWLLAHEGHRLGKPGLGGSSGLAGAWLKGAGATSGSPPAGRN", "VALUE TYPE": "MGMT activity (% of WT) DMSO", "RESULT": "92.5 % of WT"}
{"MOLECULE": "G160H: MGMT polypeptide with mutation G160H (protein) MDKDCEMKRTTLDSPLGKLELSGCEQGLHEIKLLGKGTSAADAVEVPAPAAVLGGPEPLMQCTAWLNAYFHQPEAIEEFPVPALHHPVFQQESFTRQVLWKLLKVVKFGEVISYQQLAALAGNPKAARAVGGAMRGNPVPILIPCHRVVCSSGAVGNYSHGLAVKEWLLAHEGHRLGKPGLGGSSGLAGAWLKGAGATSGSPPAGRN", "VALUE TYPE": "MGMT activity (% of WT) DMSO", "RESULT": "179.0 % of WT"}
{"MOLECULE": "Y158M: MGMT polypeptide with mutation Y158M (protein) MDKDCEMKRTTLDSPLGKLELSGCEQGLHEIKLLGKGTSAADAVEVPAPAAVLGGPEPLMQCTAWLNAYFHQPEAIEEFPVPALHHPVFQQESFTRQVLWKLLKVVKFGEVISYQQLAALAGNPKAARAVGGAMRGNPVPILIPCHRVVCSSGAVGNMSGGLAVKEWLLAHEGHRLGKPGLGGSSGLAGAWLKGAGATSGSPPAGRN", "VALUE TYPE": "MGMT activity (% of WT) DMSO", "RESULT": "38.8 % of WT"}
{"MOLECULE": "M134W: MGMT polypeptide with mutation M134W (protein) MDKDCEMKRTTLDSPLGKLELSGCEQGLHEIKLLGKGTSAADAVEVPAPAAVLGGPEPLMQCTAWLNAYFHQPEAIEEFPVPALHHPVFQQESFTRQVLWKLLKVVKFGEVISYQQLAALAGNPKAARAVGGAWRGNPVPILIPCHRVVCSSGAVGNYSGGLAVKEWLLAHEGHRLGKPGLGGSSGLAGAWLKGAGATSGSPPAGRN", "VALUE TYPE": "MGMT activity (% of WT) DMSO", "RESULT": "17.9 % of WT"}
{"MOLECULE": "P140Q: MGMT polypeptide with mutation P140Q (protein) MDKDCEMKRTTLDSPLGKLELSGCEQGLHEIKLLGKGTSAADAVEVPAPAAVLGGPEPLMQCTAWLNAYFHQPEAIEEFPVPALHHPVFQQESFTRQVLWKLLKVVKFGEVISYQQLAALAGNPKAARAVGGAMRGNPVQILIPCHRVVCSSGAVGNYSGGLAVKEWLLAHEGHRLGKPGLGGSSGLAGAWLKGAGATSGSPPAGRN", "VALUE TYPE": "MGMT activity (% of WT) DMSO", "RESULT": "120.7 % of WT"}

From here, focus on the item given below.
Specify MGMT activity (% of WT) DMSO for N137D: MGMT polypeptide with mutation N137D (protein) MDKDCEMKRTTLDSPLGKLELSGCEQGLHEIKLLGKGTSAADAVEVPAPAAVLGGPEPLMQCTAWLNAYFHQPEAIEEFPVPALHHPVFQQESFTRQVLWKLLKVVKFGEVISYQQLAALAGNPKAARAVGGAMRGDPVPILIPCHRVVCSSGAVGNYSGGLAVKEWLLAHEGHRLGKPGLGGSSGLAGAWLKGAGATSGSPPAGRN and stop.
35.4 % of WT
